METHOD DESCRIPTION: Oral bioavailability in cynomolgus monkey at 10 mg/kg
Assay type: ADME, organism-based, Macaca fascicularis
MEASUREMENT PARAMETERS: in vivo
ATTRIBUTE MEASURED: bioavailability (%)

P: CS(=N)(=O)c1cccc(NC(=O)c2cc(C(F)(F)F)cnc2Oc2ccc(F)cc2Cl)c1 (configuration not stated)
Q: Cc1cc(F)ccc1Oc1ncc(C(F)(F)F)cc1C(=O)Nc1cccc([S@](C)(=N)=O)c1
**Query** Choose between P and Q : whose measured bioavailability value is numerically larger? To answer, give the label that identifies your chosen option.
**Result** P
(P: 98%, Q: 61%)
